- method description: Solubility of photosensitive agent in polyvinylpyrrolidone/ethylcellosolve solution
- Type: physicochemical
- test context: Table 2; 5 g polyvinylpyrrolidone in 106 g ethylcellosolve; sodium salt (*): solubility varied with crystal form
Counter-ions that a name gives are not always drawn.

{"compound": "[N-]=[N+]=Nc1ccc(C=Cc2ccc(N=[N+]=[N-])cc2S(=O)(=O)NCCCO)c(S(=O)(=O)NCCCO)c1 [Amide No. 1]", "Solubility": "Good"}
{"compound": "[N-]=[N+]=Nc1ccc(C=Cc2ccc(N=[N+]=[N-])cc2S(=O)(=O)O)c(S(=O)(=O)O)c1 [Ammonium salt, reference compound]", "Solubility": "Poor"}
{"compound": "[N-]=[N+]=Nc1ccc(C=Cc2ccc(N=[N+]=[N-])cc2S(=O)(=O)[O-])c(S(=O)(=O)[O-])c1.[Na+].[Na+] [Sodium salt, reference compound]", "Solubility": "Fair"}
